STUDY_SYSTEM: T1, EsCas13d, nuclease-dead (Eubacterium siraeum, UniProt B0MS50, R295A;H300A;R849A;H854A)
T1 sequence: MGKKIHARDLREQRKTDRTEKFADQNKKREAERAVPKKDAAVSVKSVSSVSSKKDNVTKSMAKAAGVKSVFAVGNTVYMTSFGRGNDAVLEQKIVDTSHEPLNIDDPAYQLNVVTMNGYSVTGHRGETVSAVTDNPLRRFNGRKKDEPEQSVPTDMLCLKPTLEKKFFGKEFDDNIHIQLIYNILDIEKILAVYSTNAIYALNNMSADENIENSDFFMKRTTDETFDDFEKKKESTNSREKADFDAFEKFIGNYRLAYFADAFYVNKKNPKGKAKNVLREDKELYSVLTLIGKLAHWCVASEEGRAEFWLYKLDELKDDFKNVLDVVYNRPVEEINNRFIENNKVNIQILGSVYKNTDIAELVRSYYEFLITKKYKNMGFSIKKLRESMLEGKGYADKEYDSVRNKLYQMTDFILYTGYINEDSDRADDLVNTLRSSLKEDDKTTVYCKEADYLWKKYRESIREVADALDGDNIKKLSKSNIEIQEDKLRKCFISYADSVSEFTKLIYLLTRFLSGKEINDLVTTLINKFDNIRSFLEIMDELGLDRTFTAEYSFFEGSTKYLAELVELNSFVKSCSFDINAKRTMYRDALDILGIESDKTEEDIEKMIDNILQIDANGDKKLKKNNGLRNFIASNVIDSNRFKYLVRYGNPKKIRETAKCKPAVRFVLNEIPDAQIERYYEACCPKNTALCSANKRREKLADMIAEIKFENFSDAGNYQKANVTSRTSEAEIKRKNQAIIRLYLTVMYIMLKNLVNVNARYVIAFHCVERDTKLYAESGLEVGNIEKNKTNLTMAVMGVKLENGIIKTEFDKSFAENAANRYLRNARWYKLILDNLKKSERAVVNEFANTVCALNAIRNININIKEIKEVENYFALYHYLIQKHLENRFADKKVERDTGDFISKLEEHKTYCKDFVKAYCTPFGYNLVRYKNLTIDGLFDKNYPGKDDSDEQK
TEST: crRNA (strand 1, pre-loaded); Mg2+; 40 mM Tris-HCl pH 7.5, 150 mM NaCl, 6 mM MgCl2, 1 mM DTT, 0.1% Tween-20, 0.2 mg/ml BSA; 25 C; 10 min per concentration, then washed
MEASUREMENT_CONDITIONS: tags: His6-TwinStrep-SUMO cleaved; N-terminal SNAP kept (SNAP-Surface 488); label: 3' end held by stalled T7 RNA polymerase
MEASUREMENT_NAME: Kd (nM)
// units = nM; emit number, no label

Worked cases, Kd given:
[[record]]
binder = "target 2 MT 5'PFS AAA 3'PFS ACC (mixed) RNA 1: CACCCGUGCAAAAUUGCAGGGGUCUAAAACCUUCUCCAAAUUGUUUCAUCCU RNA 2: GGGAAUGGAUCCACAUCUACGAAUUCAAAAGGAUGAAACAAUUUGGAGAAGACCAGAUCGGAAGAGCACACGU"
unit_of_measurement = "nM"
recorded_measurement = 9.2

[[record]]
binder = "target 1 insA 3' of 21,insG 3' of 6 (mixed) RNA 1: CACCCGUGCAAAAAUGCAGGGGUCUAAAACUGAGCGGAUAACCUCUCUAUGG RNA 2: GGGAAUGGAUCCACAUCUACGAAUUCGUACCAAUAGAGAGGUUAUCCGGCUCACCGAGAUCGGAAGAGCACACGU"
unit_of_measurement = "nM"
recorded_measurement = 22.1


Please look at the following binder next.
Query: Kd for target 1 G12C (mixed) RNA 1: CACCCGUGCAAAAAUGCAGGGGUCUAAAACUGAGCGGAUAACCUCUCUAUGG RNA 2: GGGAAUGGAUCCACAUCUACGAAUUCGUACCAUAGAGAGCUUAUCCGCUCACCGAGAUCGGAAGAGCACACGU ?
Response: 8.3

From: paper PMC10786891
